Target: UniProtKB P11416
Test: Transactivation of mouse Gal4-fused RARalpha-LBD expressed in COS-7 cells after 1 day by bright-Glo reagent based assay relative to control ATRA
Type: cell-based
Overview of recorded Ratio EC50 for various compounds
Give only the figure.

// worked examples, Ratio EC50 included
[[record]]
item_smiles = "O=C(O)c1ccc(NC(=O)c2cc(Cl)c(OC3CCCC3)c(OC3CCCC3)c2)cc1"
value_kind = "Ratio EC50"
experimental_result = 1.7

[[record]]
item_smiles = "CCOc1c(Cl)cc(C(=O)Nc2ccc(C(=O)O)c(C)c2)cc1OC"
value_kind = "Ratio EC50"
experimental_result = 33


Lookup result for CC(C)(C)Oc1cc(C(=O)Nc2ccc(C(=O)O)cc2)cc(Cl)c1OC(C)(C)C ; measured Ratio EC50: 0.9

// recorded Ratio EC50 for CCOc1c(Cl)cc(C(=O)Nc2ccc(C(=O)O)c(F)c2)cc1OC(C)C : 1.1

Per the records, this compound ( CCOc1c(Cl)cc(C(=O)Nc2ccc(C(=O)O)c(Cl)c2)cc1Cl ) has Ratio EC50 equal to 151

Value of measured Ratio EC50 for the entry CCOc1c(Cl)cc(C(=O)Nc2ccc(C(=O)O)c(C)c2)cc1OCC1CC1 : 2.6

Lab note: Cc1cc(NC(=O)c2cc(Cl)c(OC(C)(C)C)c(OC(C)(C)C)c2)ccc1C(=O)O gave Ratio EC50 of 0.64

The reported Ratio EC50 of the compound O=C(O)c1ccc(NC(=O)c2cc(Cl)c(O)c(Cl)c2)cc1 was 92

Sure, the documented Ratio EC50 for CC(C)Oc1cc(C(=O)Nc2ccc(C(=O)O)c(F)c2)cc(Cl)c1OC(C)C is 2.7

* * *

This section presents compounds with their documented Ratio EC50 values.
Biological target: Retinoic acid receptor alpha (Mus musculus) (UniProt P11416)
Sequence (P11416 whole entry, the tested form may be a part): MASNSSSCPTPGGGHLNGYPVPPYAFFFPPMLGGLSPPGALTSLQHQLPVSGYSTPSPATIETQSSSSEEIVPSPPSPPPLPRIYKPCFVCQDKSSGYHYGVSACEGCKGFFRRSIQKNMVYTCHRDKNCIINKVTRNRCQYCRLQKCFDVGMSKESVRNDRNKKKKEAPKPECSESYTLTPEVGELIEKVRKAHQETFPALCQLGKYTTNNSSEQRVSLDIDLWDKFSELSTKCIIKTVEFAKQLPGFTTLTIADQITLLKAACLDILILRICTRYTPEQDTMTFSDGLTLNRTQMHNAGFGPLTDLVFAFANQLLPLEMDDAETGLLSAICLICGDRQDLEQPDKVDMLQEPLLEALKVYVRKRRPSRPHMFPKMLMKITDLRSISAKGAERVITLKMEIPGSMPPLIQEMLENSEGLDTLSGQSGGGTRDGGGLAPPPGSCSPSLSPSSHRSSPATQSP
Test: Transactivation of mouse Gal4-fused RARalpha-LBD expressed in COS-7 cells after 1 day by bright-Glo reagent based assay relative to control ATRA
Assay type: cell-based
Please give the numeric answer without any surrounding text.

Solved cases (3 shown):
[[record]]
item_smiles = "CC(C)Oc1c(Cl)cc(C(=O)Nc2ccc(C(=O)O)cc2)cc1Cl"
experimental_result = 7

[[record]]
item_smiles = "CCOc1c(C(C)(C)C)cc(C(=O)Nc2ccc(C(=O)O)cc2)cc1C(C)(C)C"
experimental_result = 0.2

[[record]]
item_smiles = "CCOc1cc(C(=O)Nc2ccc(C(=O)O)cc2)cc(OC(C)C)c1OCC"
experimental_result = 29


// recorded Ratio EC50 for CCCCOc1c(Cl)cc(C(=O)Nc2ccc(C(=O)O)cc2)cc1Cl : 84

Memo: CC1(C)CCC(C)(C)c2c1cc(C(=O)Nc1cc(F)c(C(=O)O)c(F)c1)c(O)c2Cl , reported Ratio EC50: 11

Summary for this compound, CCOc1c(Cl)cc(C(=O)Nc2ccc(C(=O)O)c(F)c2)cc1Cl : Ratio EC50 is 25

Reported Ratio EC50 of CCCOc1c(Cl)cc(C(=O)Nc2ccc(C(=O)O)cc2)cc1Cl : 15

So, CCOc1cc(C(=O)Nc2ccc(C(=O)O)c(C)c2)cc(Cl)c1OC(C)C ? Its Ratio EC50 was 7

The measured Ratio EC50 associated with CCOc1c(Cl)cc(C(=O)Nc2ccc(C(=O)O)c(O)c2)cc1Cl reads 33

# Ratio EC50 of COc1c(Cl)cc(C(=O)Nc2ccc(C(=O)O)c(C)c2)cc1OC(C)C = 4.7

* * *

Molecular target: UniProtKB P22605
Sequence (whole entry): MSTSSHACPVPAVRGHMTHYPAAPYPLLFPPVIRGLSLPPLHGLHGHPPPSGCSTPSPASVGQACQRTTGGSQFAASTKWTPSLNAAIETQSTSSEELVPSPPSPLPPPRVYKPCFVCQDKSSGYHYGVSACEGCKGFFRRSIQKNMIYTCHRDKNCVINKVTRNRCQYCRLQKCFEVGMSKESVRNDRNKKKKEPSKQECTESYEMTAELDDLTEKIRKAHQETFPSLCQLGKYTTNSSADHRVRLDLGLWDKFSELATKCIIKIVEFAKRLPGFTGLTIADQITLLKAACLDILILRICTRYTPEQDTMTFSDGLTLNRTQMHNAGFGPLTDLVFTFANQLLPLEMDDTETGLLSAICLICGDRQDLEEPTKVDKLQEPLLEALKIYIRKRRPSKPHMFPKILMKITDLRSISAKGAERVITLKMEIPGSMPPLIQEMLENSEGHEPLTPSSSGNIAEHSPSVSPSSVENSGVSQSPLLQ
Experiment: Transactivation of mouse Gal4-fused RARbeta-LBD expressed in COS-7 cells after 1 day by bright-Glo reagent based assay relative to control ATRA
Type: cell-based
# key: entry, value: Ratio EC50
Please reply with the number alone, leaving off any unit.

[[record]]
item_smiles = "CCCCOc1c(Cl)cc(C(=O)Nc2ccc(C(=O)O)cc2)cc1Cl"
system = "UniProtKB P22605"
experimental_result = 717

[[record]]
item_smiles = "CCCOc1c(Cl)cc(C(=O)Nc2ccc(C(=O)O)cc2)cc1Cl"
system = "UniProtKB P22605"
experimental_result = 139

[[record]]
item_smiles = "O=C(O)c1ccc(NC(=O)c2cc(Cl)c(O)c(Cl)c2)cc1"
system = "UniProtKB P22605"
experimental_result = 642


Looking up CCOc1cc(C(=O)Nc2ccc(C(=O)O)cc2)cc(Cl)c1OC(C)C , I see its Ratio EC50 listed as 7.1

// Ratio EC50 lookup, compound = CC(C)(C)Oc1cc(C(=O)Nc2ccc(C(=O)O)cc2)cc(Cl)c1OC(C)(C)C , result: 38

The compound CCOc1c(Cl)cc(NC(=O)c2ccc(C(=O)O)cc2)cc1Cl showed Ratio EC50 equal to 355

The compound CC(C)Oc1cc(C(=O)Nc2ccc(C(=O)O)cc2)cc(OC(C)C)c1OC(C)C showed Ratio EC50 equal to 2600

# Ratio EC50 (compound: CCOc1cc(C(=O)Nc2ccc(C(=O)O)cc2)cc(OC(C)C)c1OCC ) is 2450

// O=C(O)c1ccc(NC(=O)c2cc(Cl)c(OC3CCC3)c(OC3CCC3)c2)cc1 : Ratio EC50 value = 53

# Ratio EC50 of CCOc1cc(C(=O)Nc2ccc(C(=O)O)cc2)cc(OCC)c1OCC = 64100

response.value for CC1(C)CCC(C)(C)c2c1cc(C(=O)Nc1cc(F)c(C(=O)O)c(F)c1)c(O)c2Cl (field: Ratio EC50) = 1560
